# target.system: pERK1/2 (Thr202/Tyr204), NCI-1H441 (KRAS G12V) (Homo sapiens, UniProt P01116, G12V)
# Construct: pERK1/2 HTRF read-out
# Sequence (P01116 1-188 isoform P01116-2 G12V): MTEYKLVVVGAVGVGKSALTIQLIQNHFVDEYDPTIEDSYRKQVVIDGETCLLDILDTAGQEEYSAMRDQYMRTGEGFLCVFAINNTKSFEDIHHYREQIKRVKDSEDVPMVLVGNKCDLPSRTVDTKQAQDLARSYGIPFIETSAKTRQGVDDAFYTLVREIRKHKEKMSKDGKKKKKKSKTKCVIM
# measurement.protocol: Assay of intracellular pERK1/2 (Thr202/Tyr204) phosphorylation in NCI-H441 cells (KRAS G12V)
# Type: cell-based
# measurement.conditions: pERK1/2, 2 days, read-out: NCI-H441 (KRAS G12V) IC50
IC50 values, listed per item
measure.name: IC50 (nM)

[[record]]
compound = "Cc1c(F)c(N)cc(-c2nc3c4c(nc(OC[C@@]56CCCN5CC5(CC5(F)F)C6)nc4c2F)N(C(C)c2cccnc2N)CCO3)c1C(F)(F)F (single isomer, unassigned) [Compound 228]"
measure_name = "IC50"
unit_annotation = "nM"
relation_symbol = "="
value = 0.5

[[record]]
compound = "Cc1cc(N)cc(-c2nc3c4c(nc(OC[C@]56CCCN5[C@@H](CO)CC6)nc4c2F)N([C@H](C)c2cccnc2N)CCO3)c1C(F)(F)F (single isomer, unassigned) [Compound 100]"
measure_name = "IC50"
unit_annotation = "nM"
relation_symbol = ">"
value = 100

[[record]]
compound = "Cc1c(F)c(N)cc(-c2nc3c4c(nc(OC[C@@]56CCC(=O)N5C[C@H](F)C6)nc4c2F)N(C(C)c2cccnc2N)CCO3)c1C(F)(F)F (stereo partly shown) [Compound 195]"
measure_name = "IC50"
unit_annotation = "nM"
relation_symbol = "="
value = 99

[[record]]
compound = "CC(c1cccnc1N)N1CCOc2nc(-c3nc(N)cc4ccccc34)c(F)c3nc(OC[C@@H]4CCCN4C)nc1c23 (stereo partly shown) [Compound 28]"
measure_name = "IC50"
unit_annotation = "nM"
relation_symbol = ">"
value = 1000

[[record]]
compound = "[2H]C1([2H])CC[C@@]2(COc3nc4c5c(nc(-c6cc(N)c(F)c(Cl)c6C(F)(F)F)c(F)c5n3)OCCN4C(C)c3cccnc3N)C[C@@H](F)CN12 (stereo partly shown) [Compound 221]"
measure_name = "IC50"
unit_annotation = "nM"
relation_symbol = "="
value = 0.4

[[record]]
compound = "Cc1c(F)c(N)cc(-c2nc3c4c(nc(OC[C@@H]5CCCN5C)nc4c2F)N(C(C)c2cccnc2N)CCO3)c1C(F)(F)F (single isomer, unassigned) [Compound 85]"
measure_name = "IC50"
unit_annotation = "nM"
relation_symbol = "="
value = 2

[[record]]
compound = "[2H]C1([2H])CC[C@@]2(COc3nc4c5c(nc(-c6cc(N)c(F)c(Cl)c6C(F)(F)F)c(F)c5n3)OC([2H])([2H])C([2H])([2H])N4C(C)c3ccc[n+]([O-])c3N)C[C@@H](F)CN12 (stereo partly shown) [Compound 224]"
measure_name = "IC50"
unit_annotation = "nM"
relation_symbol = ">"
value = 100

[[record]]
compound = "CC(c1cccnc1N)N1CCOc2nc(-c3cc(O)cc(F)c3C3CC3)c(F)c3nc(OC[C@@H]4CC(F)(F)CN4C)nc1c23 (single isomer, unassigned) [Compound 48]"
measure_name = "IC50"
unit_annotation = "nM"
relation_symbol = ">"
value = 1000

[[record]]
compound = "Cc1c(F)c(N)cc(-c2nc3c4c(nc(OC[C@@]56CCCN5C[C@H](F)C6)nc4c2F)N(C(C)c2cccnc2N)C[C@@H](C)O3)c1C(F)(F)F (single isomer, unassigned) [Compound 247]"
measure_name = "IC50"
unit_annotation = "nM"
relation_symbol = ">"
value = 100

[[record]]
compound = "Cc1cc2[nH]ncc2c(-c2nc3c4c(nc(OC[C@@]56CCCN5C[C@H](F)C6)nc4c2F)N(C(C)c2cc(Cl)cnc2N)[C@@H](C)CO3)c1C(F)(F)F (stereo partly shown) [Compound 334]"
measure_name = "IC50"
unit_annotation = "nM"
relation_symbol = "="
value = 0.5


###

Property: pIC50; scope: individual molecules
# target.system: pERK1/2 (Thr202/Tyr204), PANC-1 (KRAS G121D) (Homo sapiens, UniProt P01116, G12D)
# Construct: pERK1/2 HTRF read-out
# Sequence (P01116 1-188 isoform P01116-2 G12D): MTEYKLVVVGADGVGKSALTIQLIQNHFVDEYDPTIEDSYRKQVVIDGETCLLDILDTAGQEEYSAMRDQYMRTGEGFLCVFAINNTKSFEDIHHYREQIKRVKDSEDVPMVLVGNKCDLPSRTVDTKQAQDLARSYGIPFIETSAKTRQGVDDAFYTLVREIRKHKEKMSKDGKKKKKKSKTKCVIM
# measurement.protocol: Assay of intracellular pERK1/2 (Thr202/Tyr204) phosphorylation in PANC-1 cells (KRAS G12D)
# Type: cell-based
# measurement.conditions: pERK1/2, 2 days, read-out: PANC-1 (KRAS G12D) IC50
pIC50: −log10 of the molar value.
measure.name: pIC50

[[record]]
molecule = "[2H]C([2H])([2H])N1CCC[C@H]1COc1nc2c3c(nc(-c4cc(N)cc(Cl)c4C(F)(F)F)c(F)c3n1)OCCN2C(C)c1cccnc1N (stereo partly shown)"
relation_symbol = "="
value = 7.68

[[record]]
molecule = "CC(c1cccnc1N)N1CCOc2nc(-c3cc(N)c(F)cc3C(F)(F)F)c(F)c3nc(OC[C@@]45CCCN4C[C@H](F)C5)nc1c23 (stereo partly shown) [Compound 135]"
relation_symbol = "="
value = 7.52

[[record]]
molecule = "CC(c1cccnc1N)N1CCOc2nc(-c3cc(O)cc(Cl)c3C3CC3)c(F)c3nc(OC[C@@H]4CCCN4C)nc1c23 (single isomer, unassigned) [Compound 32]"
relation_symbol = "="
value = 7.30

[[record]]
molecule = "CC(c1cccnc1N)N1CCOc2nc(-c3cc(O)cc4ccc(F)c(F)c34)c(F)c3ncnc1c23 (single isomer, unassigned) [Compound 29]"
relation_symbol = "<"
value = 6.00

[[record]]
molecule = "Cc1cc(N)cc(-c2nc3c4c(nc(OC[C@H]5CCCN5CCF)nc4c2F)N(C(C)c2cccnc2N)CCO3)c1C(F)(F)F (single isomer, unassigned) [Compound 79]"
relation_symbol = "<"
value = 7.00

[[record]]
molecule = "Cc1cc(N)cc(-c2nc3c4c(nc(OC[C@@H]5CCCN5C5COC5)nc4c2F)N(C(C)c2cccnc2N)CCO3)c1C(F)(F)F (stereo partly shown) [Compound 123]"
relation_symbol = "<"
value = 7.00

[[record]]
molecule = "Cc1c(F)c(N)cc(-c2nc3c4c(nc(OC[C@@]56CCCN5C[C@H](F)C6)nc4c2F)N(C(C)c2cccnc2N)CCO3)c1C(F)(F)F (single isomer, unassigned) [Compound 138]"
relation_symbol = "="
value = 7.52

[[record]]
molecule = "Cc1c(-c2nc3c4c(nc(OC[C@@]56CCCN5C[C@H](F)C6)nc4c2F)N(C(C)c2cccnc2N)[C@@H](C)CO3)ccc2cn[nH]c12 (stereo partly shown)"
relation_symbol = "<"
value = 7.00

[[record]]
molecule = "CC(c1cccnc1N)N1CCOc2nc(-c3cc(O)cc4ccc(F)c(F)c34)c(F)c3nc(OC[C@@H]4CCCN4C)nc1c23 (single isomer, unassigned) [Compound 41]"
relation_symbol = "<"
value = 6.00

[[record]]
molecule = "Cc1cc(N)cc(-c2nc3c4c(nc(OC[C@H]5CCCN5CCF)nc4c2F)N(C(C)c2cccnc2N)CCO3)c1C(F)(F)F (single isomer, unassigned) [Compound 78]"
relation_symbol = "="
value = 7.38

[[record]]
molecule = "Cc1c(F)c(N)cc(-c2nc3c4c(nc(OCC56CC(F)CN5CC(F)C6)nc4c2F)N(C(C)c2cccnc2N)CCO3)c1C(F)(F)F (single isomer, unassigned; diastereomer 1) [Compound 241]"
relation_symbol = "="
value = 7.89

[[record]]
molecule = "CC(c1cccnc1N)N1CCOc2nc(-c3cc(N)cc(F)c3C(F)(F)F)c(F)c3nc(OC[C@@]45CCCN4C[C@H](F)C5)nc1c23 (single isomer, unassigned) [Compound 88]"
relation_symbol = "="
value = 8.52

[[record]]
molecule = "CC(c1cccnc1N)N1CCOc2nc(-c3ccc(F)c4sc(N)nc34)c(F)c3nc(OC[C@@H]4CCN4CC(F)F)nc1c23 (stereo partly shown)"
relation_symbol = "<"
value = 6.00

[[record]]
molecule = "CC(c1cccnc1N)N1CCOc2nc(-c3cc(O)cc4ccc(F)c(F)c34)c(F)c3nc(O)nc1c23 (stereo not shown)"
relation_symbol = "<"
value = 6.00

[[record]]
molecule = "CC(c1cccnc1N)N1c2nc(OC[C@@]34CCCN3C[C@H](F)C4)nc3c(F)c(-c4c5c(cc6[nH]ncc46)CC=C5F)nc(c23)OC[C@@H]1C (stereo partly shown)"
relation_symbol = "="
value = 9.00

[[record]]
molecule = "CC(c1cccnc1N)N1c2nc(OC[C@@]34CCCN3C[C@H](F)C4)nc3c(F)c(-c4c(C(F)(F)F)c(Cl)cc5[nH]ncc45)nc(c23)OC[C@@H]1C (single isomer, unassigned)"
relation_symbol = "="
value = 9.52

[[record]]
molecule = "C[C@@H](c1cccnc1N)N1CCOc2nc(-c3c(C(F)(F)F)ccc4[nH]ncc34)c(F)c3nc(OC[C@@H]4CCN4CC(F)F)nc1c23 (single isomer, unassigned)"
relation_symbol = "="
value = 6.63

[[record]]
molecule = "CC(c1cccnc1N)N1CCOc2nc(-c3cc(O)cc4ccc(F)c(F)c34)c(F)c3ncnc1c23 (stereo not shown) [Compound 22]"
relation_symbol = "="
value = 6.41

[[record]]
molecule = "CC(c1cccnc1N)N1CCOc2nc(-c3c(C(F)(F)F)ccc4[nH]ncc34)c(F)c3nc(OC[C@@H]4CC(F)(F)CN4C)nc1c23 (stereo partly shown)"
relation_symbol = "="
value = 6.03

[[record]]
molecule = "CC[C@H]1COc2nc(-c3c(C(F)(F)F)c(C)cc4[nH]ncc34)c(F)c3nc(OC[C@@]45CCCN4C[C@H](F)C5)nc(c23)N1C(C)c1cccnc1N (stereo partly shown)"
relation_symbol = "="
value = 7.77

[[record]]
molecule = "CC(c1cccnc1N)N1CCOc2nc(-c3cc(O)cc(Cl)c3C(F)(F)F)c(F)c3nc(OC[C@@]45CCCN4C[C@H](F)C5)nc1c23 (single isomer, unassigned) [Compound 57]"
relation_symbol = "="
value = 6.13

[[record]]
molecule = "[2H]C1([2H])CC[C@@]2(C([2H])([2H])Oc3nc4c5c(nc(-c6cc(N)c(F)c(C)c6C(F)(F)F)c(F)c5n3)OCCN4C(C)c3cccnc3N)C[C@@H](F)CN12 (stereo partly shown) [Compound 119]"
relation_symbol = "="
value = 8.70

